experiment-description: Oral bioavailability in human
Assay type: ADME, organism-based
assay-setup: in vivo
measure-name: bioavailability (%)

Nc1nc2c(ncn2COCCO)c(=O)[nH]1 = 10
